# STUDY TARGET: Cellular tumor antigen p53 (Homo sapiens)
# ASSAY EXPLANATION: Primary qHTS for small molecule compounds that upregulate eGFP-tagged delta133p53alpha (in C-terminal) cells. (AID 2060324)
# CONDITION LABEL: NCI-H358 delta133p53alpha-eGFP (C-terminal tag), GFP fluorescence imaging, 24 h; series mostly up to 57.5 µM
Records with an inconclusive call do not appear. The source made the active and inactive calls. Calls follow the shape of the dose curve; as a rule, active = well fitted activation curve with a large enough effect; inconclusive = small, poorly fitted or top-dose-only effect; inactive = flat fitted curve, though single readings scatter.
Outcome codes: active, inactive

COMPOUND	STUDY TARGET	LABEL
O=C(/C=C/c1ccc(O)c(O)c1)OCCc1ccccc1	Cellular tumor antigen p53 (Homo sapiens)	inactive
CCCCCCC(=O)OC1CC(C)(C)NC(C)(C)C1	Cellular tumor antigen p53 (Homo sapiens)	inactive
Nc1nnc(-c2cccc(Cl)c2Cl)c(N)n1	Cellular tumor antigen p53 (Homo sapiens)	inactive
CC1(C)CCC=[N+]1[O-]	Cellular tumor antigen p53 (Homo sapiens)	inactive
NCCC1CCCC(CCN)N1 (centres undefined)	Cellular tumor antigen p53 (Homo sapiens)	inactive
O=C1NC(=O)[C@@]2(CCOc3ccc(F)cc32)N1	Cellular tumor antigen p53 (Homo sapiens)	inactive
CC(C(O)c1ccc(O)cc1)N1CCC(Cc2ccccc2)CC1 (centres undefined)	Cellular tumor antigen p53 (Homo sapiens)	inactive
O=C(Nc1ccc2[nH]ncc2c1)C1CCC1	Cellular tumor antigen p53 (Homo sapiens)	inactive
CC1=C(CC(=O)O)c2cc(F)ccc2/C1=C\c1ccc(S(C)=O)cc1 (centres undefined)	Cellular tumor antigen p53 (Homo sapiens)	inactive
O=C(CCCN1CCC(O)(c2ccc(Cl)cc2)CC1)c1ccc(F)cc1	Cellular tumor antigen p53 (Homo sapiens)	inactive
CC[C@H]1CN2CCc3cc(OC)c(OC)cc3[C@@H]2C[C@@H]1C[C@H]1NCCc2cc(OC)c(OC)cc21	Cellular tumor antigen p53 (Homo sapiens)	active
O=C(CCCN1CCC(O)(c2cccc(C(F)(F)F)c2)CC1)c1ccc(F)cc1	Cellular tumor antigen p53 (Homo sapiens)	inactive
CC[C@H](NC(=O)c1c(C)c(-c2ccccc2)nc2ccccc12)c1ccccc1	Cellular tumor antigen p53 (Homo sapiens)	inactive
N[C@H](C(=O)O)[C@H]1C[C@@H]1C(=O)O	Cellular tumor antigen p53 (Homo sapiens)	inactive
CC1CN(S(=O)(=O)c2cccc3cnccc23)CCN1 (centres undefined)	Cellular tumor antigen p53 (Homo sapiens)	inactive
CN(C)CCOC(=O)COc1ccc(Cl)cc1	Cellular tumor antigen p53 (Homo sapiens)	inactive
CC1CNCCN1S(=O)(=O)c1cccc2cnccc12 (centres undefined)	Cellular tumor antigen p53 (Homo sapiens)	inactive
CCOC(=O)Nc1ccc(NCc2ccc(F)cc2)nc1N	Cellular tumor antigen p53 (Homo sapiens)	active
CC(C)CC(NP(=O)(O)O[C@@H]1O[C@@H](C)[C@H](O)[C@@H](O)[C@H]1O)C(=O)NC(Cc1c[nH]c2ccccc12)C(=O)O (some centres undefined)	Cellular tumor antigen p53 (Homo sapiens)	inactive
Nc1nc(Nc2ccccc2)nc2c1ncn2[C@@H]1O[C@H](CO)[C@@H](O)[C@H]1O	Cellular tumor antigen p53 (Homo sapiens)	inactive
CCCN1C[C@H](CSC)C[C@@H]2c3cccc4[nH]cc(c34)C[C@H]21	Cellular tumor antigen p53 (Homo sapiens)	inactive
CC(C)(C)NCC(O)c1ccc(O)c(CO)c1 (centres undefined)	Cellular tumor antigen p53 (Homo sapiens)	inactive
C[N+]1(C)CCC(OC(=O)C(c2ccccc2)c2ccccc2)CC1	Cellular tumor antigen p53 (Homo sapiens)	inactive
Clc1nccc2c1ccc1ccccc12	Cellular tumor antigen p53 (Homo sapiens)	inactive
